Just for reference, the supplement of paper PMC12783771 is where these values come from.

B1: library; numbered along this chain (parent)
chain: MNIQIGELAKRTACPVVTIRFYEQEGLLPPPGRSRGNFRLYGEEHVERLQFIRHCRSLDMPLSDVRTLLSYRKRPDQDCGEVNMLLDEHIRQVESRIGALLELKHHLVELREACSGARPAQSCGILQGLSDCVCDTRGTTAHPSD

variants of: B1; assay: sfGFP reporter fluorescence (15 h) (µM FITC); higher = stronger transcriptional activation; conditions: library round: Round 0; ligand: 1 µM Pb
Label fulfilled when sfGFP reporter fluorescence >= 0.07; otherwise not fulfilled.

Query block: Quick check: does `L40A` have sfGFP reporter fluorescence greater than or equal to 0.07?
Result block: not fulfilled

Query block: Quick check: does `C123Y` have sfGFP reporter fluorescence greater than or equal to 0.07?
Result block: not fulfilled

Query block: Quick check: does `E7W` have sfGFP reporter fluorescence greater than or equal to 0.07?
Result block: not fulfilled

Query block: Quick check: does `L107N` have sfGFP reporter fluorescence greater than or equal to 0.07?
Result block: fulfilled

Query block: Quick check: does `E43A` have sfGFP reporter fluorescence greater than or equal to 0.07?
Result block: fulfilled

Query block: Quick check: does `N83C` have sfGFP reporter fluorescence greater than or equal to 0.07?
Result block: fulfilled

Query block: Quick check: does `L28E` have sfGFP reporter fluorescence greater than or equal to 0.07?
Result block: not fulfilled

Query block: Quick check: does `R20V` have sfGFP reporter fluorescence greater than or equal to 0.07?
Result block: not fulfilled

Query block: Quick check: does `E112R` have sfGFP reporter fluorescence greater than or equal to 0.07?
Result block: fulfilled

Query block: Quick check: does K104V G128M have sfGFP reporter fluorescence greater than or equal to 0.07?
Result block: fulfilled

Query block: Quick check: does `C79F` have sfGFP reporter fluorescence greater than or equal to 0.07?
Result block: not fulfilled

Query block: Quick check: does `M60I` have sfGFP reporter fluorescence greater than or equal to 0.07?
Result block: fulfilled

Query block: Quick check: does `V82L` have sfGFP reporter fluorescence greater than or equal to 0.07?
Result block: not fulfilled

Query block: Quick check: does `L107F` have sfGFP reporter fluorescence greater than or equal to 0.07?
Result block: not fulfilled
